Kindly state melting point for each of the entries shown.
Number only, in °C; omit the unit.

q: Name the recorded melting point for Cc1cc(CN(Cc2cccs2)c2sc(-c3ccc(C(F)(F)F)cc3)nc2C)ccc1OC(C)(C)C(=O)O .
a: 100

q: Name the recorded melting point for Cc1cc(CN(Cc2ccco2)c2sc(-c3ccc(C(F)(F)F)cc3)nc2C)ccc1OC(C)(C)C(=O)O .
a: 80

q: Name the recorded melting point for Cc1cc(CN(C)c2cc(-c3ccc(Cl)cc3)nn2C)cc(C)c1OC(C)(C)C(=O)O .
a: 158
